Measured values drawn from PubChem BioAssay (NCI) for this set.

- test-details: NCI Yeast Anticancer Drug Screen. Data for the rad50 strain (AID 155);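 also: 0% = growth of vehicle-only cultures of the same strain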
- condition-context: S. cerevisiae rad50 strain growth inhibition; at 50.0 µM; hits give high values
About 79,000 compounds went through this panel and 15% of them were active in at least one assay; those are over-represented in the sample as a whole.
property-label: growth inhibition (%)
Report as a plain number; the unit % is understood.

Query: Tell me the measured growth inhibition of "Cc1cc(N(CCC#N)CCC#N)ccc1/C=C1N=C(/C=C\c2ccccc2)N(NC(=O)CC(=O)Nc2ccccc2Cl)C\1=O" , please.
Reply: 14.6

Query: Also check "Cc1ccc(O)cc1C(=O)O"
Reply: -32

Query: Also check "Cc1cccc(OCCCCCl)c1"
Reply: -18

Query: Also check "CC(C)CCC[C@@H](C)[C@H]1CC[C@H]2[C@@H]3CC=C4C[C@@H](OC(=O)c5cccc6c(=O)c7ccccc7[nH]c56)CC[C@]4(C)[C@H]3CC[C@]12C"
Reply: 12.8

Query: Also check "N#CCCN(CCC#N)CCN(CCN(CCC#N)CCC#N)CCN(CCC#N)CCC#N"
Reply: -8.1

Query: Also check "CCCCC(Nc1nncs1)Nc1nncs1"
Reply: -8.9

====

- test-details: NCI Yeast Anticancer Drug Screen. Data for the mec2-1 strain (AID 157)
- condition-context: S. cerevisiae mec2-1 strain, at 50.0 µM, hits give high values
- Procedure: Growth inhibition of yeast strains with defined genetic alterations is measured as a screen for potential anti-cancer activity. Selected strains with alterations in DNA damage repair or cell cycle control were exposed to compounds and growth inhibition was measured relative to vehicle treated controls. The strain used in this assay is mec2-1
The panel holds about 79,000 compounds, 15% with a hit somewhere; the sample as a whole holds those more often.
Assign growth inhibition to each entry below.
Report as a plain number; the unit % is understood.

Query: Tell me the measured growth inhibition of "CCCCCCCCCCCCCCCCCC1=Nc2cc(C)c(C)cc2NC(=O)C1" , please.
Reply: -31.6

Query: Also check "COc1onc(C)c1CC(=O)O"
Reply: 1.2

Query: Also check "CN(C)C(=O)Nc1cccc(OC(=O)NCCCl)c1"
Reply: 52.5

Query: Also check "c1ccc(-c2cc3cc4c(cc3[nH]2)Oc2ccccc2O4)cc1"
Reply: 14.4

Query: Also check "O=C(O)c1ccc(N=C=S)cc1O"
Reply: -8.75

Query: Also check CCCCCCC(C)Cl (centres undefined)
Reply: -6.05

Query: Also check "O=C1CS(=O)(=O)C2(CCCCC2)C(=O)N1"
Reply: -5.65

Query: Also check "CC(C)(C)CC(C)(C)NS(=O)(=O)NC(C)(C)CC(C)(C)C"
Reply: -31.1

Query: Also check "O=C(/C=C/c1ccccc1)/C=N/N1C(=S)N(c2ccccc2)C(=Nc2ccccc2)C1=Nc1ccccc1"
Reply: -15.8

Query: Also check "CSc1ccc(C(=NO)c2ccc(SC)cc2)cc1"
Reply: 17.8

Query: Also check O=C1CCCC1C(O)(C(F)(F)F)C(F)(F)F (centres undefined)
Reply: -19.9

Query: Also check "CSC1=Nc2ccccc2N(C)c2c1c(-c1ccccc1)nn2C"
Reply: 32.1

Query: Also check CC1CC(=O)C2CC(Cl)CCC2(C)C1C (centres undefined)
Reply: -22.6

Query: Also check NC(=O)C1CC(O)CC(C(N)=O)O1 (centres undefined)
Reply: 8.3

Query: Also check COc1cc(C2NCCC(c3ccccc3)(c3ccccc3)N2)cc(OC)c1OC (centres undefined)
Reply: -4.65

Query: Also check CC12OC(=O)C(C#N)C1(C)C1C(=O)CCCC12 (centres undefined)
Reply: -7.55

Query: Also check "Cc1cc(S(=O)(=O)O)cc(C(C)(C)C)c1O"
Reply: -11.4

Query: Also check Cc1ccccc1N1CC2CC3C=CC2(C1)O3 (centres undefined)
Reply: 15.9

Query: Also check "O=C1C/C(=C/c2ccccc2[N+](=O)[O-])C(=O)N1c1ccccc1"
Reply: 4.35
